- measured on: human carbonic anhydrase II (hCA II) (Homo sapiens)
endpoint: IC50 (nM)

1. COc1ccc2c(c1O)-c1c(O)c(OC)cc3c1[C@H](C2)[N+](C)(C)CC3 [Magnofluorine] | 26
